Source of measurements: ChEMBL document CHEMBL1143040

- assay.system: Neuronal acetylcholine receptor subunit alpha-7 (Homo sapiens)
- Sequence (P36544 whole entry): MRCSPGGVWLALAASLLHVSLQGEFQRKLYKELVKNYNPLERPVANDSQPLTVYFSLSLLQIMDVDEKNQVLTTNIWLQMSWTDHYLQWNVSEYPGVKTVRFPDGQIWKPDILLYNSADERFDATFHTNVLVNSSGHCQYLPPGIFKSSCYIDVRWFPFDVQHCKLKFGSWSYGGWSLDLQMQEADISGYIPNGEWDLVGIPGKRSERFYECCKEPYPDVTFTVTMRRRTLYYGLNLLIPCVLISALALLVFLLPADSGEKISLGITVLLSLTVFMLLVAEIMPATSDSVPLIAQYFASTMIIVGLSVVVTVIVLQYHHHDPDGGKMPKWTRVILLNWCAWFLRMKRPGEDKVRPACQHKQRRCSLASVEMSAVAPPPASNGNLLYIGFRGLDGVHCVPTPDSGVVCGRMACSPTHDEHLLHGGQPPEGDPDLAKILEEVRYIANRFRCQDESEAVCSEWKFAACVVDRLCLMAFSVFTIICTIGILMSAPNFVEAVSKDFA
- experiment.summary: Displacement of [125I]alpha-bungarotoxin from human alpha-7 nAChR expressed in SH-SY5Y cells
measure.name: pKi
API: returns pKi as number; meaning -log10 of concentration in mol/L.

Answered cases to consult:
COc1cc2c(cc1O)C[C@H]1c3c(c(Br)c(O)c(OC)c3-2)CCN1C [3-BROMOBOLDINE]; 4.08
COc1cc2c(cc1O)C[C@H]1c3c(cc(O)c(OC)c3-2)CCN1C [BOLDINE]; 4.17
COc1cc2c(cc1O)C[C@H]1c3c(cc(OC)c(OC)c3-2)CC[N+]1(C)C; 5.00
COc1cc2c(c(Br)c1O)C[C@H]1c3c(c(Br)c(O)c(OC)c3-2)CCN1C; 4.02
COc1cc2c(cc1OC)-c1c(OC)c(OC)cc3c1[C@H](C2)[N+](C)(C)CC3 [GLAUCINE METHIODIDE]; 4.74

Looking up COc1cc2c(cc1OC)-c1c(OC)c(O)cc3c1[C@H](C2)[N+](C)(C)CC3 [PREDICENTRINE METHIODIDE] , I found its pKi recorded as 4.68

pKi reported for this molecule COc1cc2c(cc1O)C[C@H]1c3c(cc(O)c(OC)c3-2)CC[N+]1(C)C [BOLDINE METHIODIDE] : 4.82
